I'd be grateful if you could share measured FACS Cell Binding for these entries.
Target: T1, mouse PRLR on HEK293/mPRLR cells (Mus musculus, UniProt Q08501)
T1 construct: HA; expressed in transfected cells; host or cells: HEK293
T1 sequence (Q08501 20-608): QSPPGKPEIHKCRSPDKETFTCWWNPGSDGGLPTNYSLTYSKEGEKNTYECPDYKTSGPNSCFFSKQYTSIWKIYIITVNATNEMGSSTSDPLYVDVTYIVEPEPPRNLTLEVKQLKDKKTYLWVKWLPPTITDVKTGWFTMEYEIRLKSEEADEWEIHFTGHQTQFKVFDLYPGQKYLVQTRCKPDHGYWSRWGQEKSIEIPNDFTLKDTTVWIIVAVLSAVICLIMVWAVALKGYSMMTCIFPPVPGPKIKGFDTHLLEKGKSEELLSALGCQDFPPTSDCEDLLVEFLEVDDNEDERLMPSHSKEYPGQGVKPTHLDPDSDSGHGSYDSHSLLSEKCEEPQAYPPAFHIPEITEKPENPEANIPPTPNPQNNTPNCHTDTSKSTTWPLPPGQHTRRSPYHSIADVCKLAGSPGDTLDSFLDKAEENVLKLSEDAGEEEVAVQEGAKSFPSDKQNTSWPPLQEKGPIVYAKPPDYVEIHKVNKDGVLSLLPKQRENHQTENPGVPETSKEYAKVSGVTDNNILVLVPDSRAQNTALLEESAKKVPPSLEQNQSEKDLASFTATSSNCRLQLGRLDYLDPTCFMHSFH
Assay: FACS cell surface binding
Entry rule: numbers only, all in Fold Above Background.

Request: FACS Cell Binding lookup needed for H1H6790P: fully human anti-PRLR antibody, human IgG1 Fc; HCVR/LCVR SEQ ID NOs 114/122 (antibody, V domains shown) VH: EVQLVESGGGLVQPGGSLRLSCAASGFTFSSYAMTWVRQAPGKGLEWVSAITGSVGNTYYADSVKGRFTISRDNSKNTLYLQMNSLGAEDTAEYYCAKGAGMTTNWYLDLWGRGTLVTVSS VL: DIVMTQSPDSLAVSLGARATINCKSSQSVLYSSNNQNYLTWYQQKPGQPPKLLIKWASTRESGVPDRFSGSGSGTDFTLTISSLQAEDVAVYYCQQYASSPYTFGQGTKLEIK , thanks.
Result: 1

Request: Let us now turn to H1H6967N: anti-PRLR antibody, human IgG1 Fc form of H2M6967N of Table 1; HCVR/LCVR SEQ ID NOs 354/362 (antibody, V domains shown, human IgG1 Fc) VH: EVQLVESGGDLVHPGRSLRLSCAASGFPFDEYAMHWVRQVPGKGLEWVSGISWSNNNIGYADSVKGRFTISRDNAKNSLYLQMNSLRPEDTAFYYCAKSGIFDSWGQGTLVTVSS VL: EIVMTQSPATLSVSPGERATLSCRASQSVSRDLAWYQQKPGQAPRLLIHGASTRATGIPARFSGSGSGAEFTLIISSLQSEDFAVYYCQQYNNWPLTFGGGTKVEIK
Result: 2

Request: Let us now turn to H1H6804P: fully human anti-PRLR antibody, human IgG1 Fc; HCVR/LCVR SEQ ID NOs 242/250 (antibody, V domains shown) VH: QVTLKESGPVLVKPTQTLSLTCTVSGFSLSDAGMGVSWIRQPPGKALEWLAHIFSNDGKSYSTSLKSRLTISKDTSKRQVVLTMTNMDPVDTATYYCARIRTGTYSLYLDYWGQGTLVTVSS VL: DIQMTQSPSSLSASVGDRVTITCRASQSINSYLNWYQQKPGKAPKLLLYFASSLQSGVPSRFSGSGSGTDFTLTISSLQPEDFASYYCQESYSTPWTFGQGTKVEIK
Result: 1

Request: Let us now turn to H1H6960N: anti-PRLR antibody, human IgG1 Fc form of H2M6960N of Table 1; HCVR/LCVR SEQ ID NOs 322/330 (antibody, V domains shown, human IgG1 Fc) VH: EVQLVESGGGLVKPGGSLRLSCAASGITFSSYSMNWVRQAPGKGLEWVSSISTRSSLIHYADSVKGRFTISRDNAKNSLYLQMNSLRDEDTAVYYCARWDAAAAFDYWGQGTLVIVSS VL: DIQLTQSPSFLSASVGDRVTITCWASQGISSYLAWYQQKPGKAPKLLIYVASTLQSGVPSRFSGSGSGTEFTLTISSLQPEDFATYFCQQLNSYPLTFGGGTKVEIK
Result: 1

Ref: patent US10925971B2
